Reference source for all entries: the supplement of paper PMC5998384

# System: HeLa Kyoto;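 further: synchronized HeLa Kyoto cells, proteins quantified by TMT10plex mass spectrometry, three biological replicates, mitosis taken 0.5 h after nocodazole release, G1/S directly after double thymidine block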
# TEST PROTOCOL: thermal stability score vs G1/S (z-score of summed log2 fold changes over temperatures); higher = more thermally stable than in G1/S
# PARTICULARS: cell cycle stage: mitosis
Entries and their measured thermal stability score follow.

>  <RESIDUE STRING>
MPSSPLRVAVVCSSNQNRSMEAHNILSKRGFSVRSFGTGTHVKLPGPAPDKPNVYDFKTTYDQMYNDLLRKDKELYTQNGILHMLDRNKRIKPRPERFQNCKDLFDLILTCEERVYDQVVEDLNSREQETCQPVHVVNVDIQDNHEEATLGAFLICELCQCIQHTEDMENEIDELLQEFEEKSGRTFLHTVCFY [SSU72]

>  <thermal stability score>
-0.182

$$$$
>  <RESIDUE STRING>
MSSASGLRRGHPAGGEENMTETDAFYKREMFDPAEKYKMDHRRRGIALIFNHERFFWHLTLPERRGTCADRDNLTRRFSDLGFEVKCFNDLKAEELLLKIHEVSTVSHADADCFVCVFLSHGEGNHIYAYDAKIEIQTLTGLFKGDKCHSLVGKPKIFIIQACRGNQHDVPVIPLDVVDNQTEKLDTNITEVDAASVYTLPAGADFLMCYSVAEGYYSHRETVNGSWYIQDLCEMLGKYGSSLEFTELLTLVNRKVSQRRVDFCKDPSAIGKKQVPCFASMLTKKLHFFPKSN [CASP6]

>  <thermal stability score>
-1.03

$$$$
>  <RESIDUE STRING>
MAGVSACIKYSMFTFNFLFWLCGILILALAIWVRVSNDSQAIFGSEDVGSSSYVAVDILIAVGAIIMILGFLGCCGAIKESRCMLLLFFIGLLLILLLQVATGILGAVFKSKSDRIVNETLYENTKLLSATGESEKQFQEAIIVFQEEFKCCGLVNGAADWGNNFQHYPELCACLDKQRPCQSYNGKQVYKETCISFIKDFLAKNLIIVIGISFGLAVIEILGLVFSMVLYCQIGNK [TSPAN8]

>  <thermal stability score>
-1.57

$$$$
